# System: Aspergillus niger
# test: Antimicrobial activity against Aspergillus niger after 24 hrs by liquid dilution method
# Assay type: functional
property: MIC (µg/mL)

Use the examples below as a reference point.
CC(=O)N1CCN(c2ccc(OCC3COC(Cn4ccnc4)(c4ccc(Cl)cc4Cl)O3)cc2)CC1 (centres undefined) [KETOCONAZOLE]; 15
Cc1ccc2[nH]cc(-c3nc4ccccc4c4cc5ccccc5n34)c2c1; 2.5
c1ccc2c(c1)cc1c3ccccc3nc(-c3c[nH]c4ccccc34)n21; 10
c1ccc(-c2nc3ccccc3c3cc4ccccc4n23)c(-c2nc3ccccc3c3cc4ccccc4n23)c1; 20
COc1ccc2[nH]cc(-c3nc4ccccc4c4cc5ccccc5n34)c2c1; 10
c1ccc2cc(-c3nc4ccccc4c4cc5ccccc5n34)c(-c3nc4ccccc4c4cc5ccccc5n34)cc2c1; 35
c1ccc2c(c1)cc1c3ccccc3nc(-c3ccc(-c4ccncc4)cc3)n21; 25

[P] c1cc(-c2nc3ccccc3c3cc4ccccc4n23)cc(-c2nc3ccccc3c3cc4ccccc4n23)c1
[Q] c1ccc2c(c1)cc1c3ccccc3nc(-c3csc4ccccc34)n21
Data request: Smaller MIC value, P vs Q ? // respond with label for picked entry
Data returned: Q

----------
# Test system: Aspergillus niger
# test: Antimicrobial activity against Aspergillus niger at 1000 ug after 72 hrs by cup plate method
# Format: functional
# measurement_setup: read-out: DIZ
# key: entry, value: zone of inhibition at 1000 µg/disc
Write down the numeric answer in mm and omit the unit.

# annotated cases, reported zone of inhibition at 1000 µg/disc shown
c1ccc2c(c1)cc1c3ccccc3nc(-c3ccc(-c4nc5ccccc5c5cc6ccccc6n45)cc3)n21; 12
c1cc(-c2nc3ccccc3c3cc4ccccc4n23)cc(-c2nc3ccccc3c3cc4ccccc4n23)c1; 12

Data request: Fill blank: measured zone of inhibition at 1000 µg/disc of the compound `c1ccc2c(c1)cc1c3ccccc3nc(-c3ccc(Oc4ccc(-c5nc6ccccc6c6cc7ccccc7n56)cc4)cc3)n21` is ____.
Data returned: 10

Data request: Same read-out for `c1ccc2cc(-c3nc4ccccc4c4cc5ccccc5n34)c(-c3nc4ccccc4c4cc5ccccc5n34)cc2c1` ?
Data returned: 17

Data request: // repeat for `COc1ccc2[nH]cc(-c3nc4ccccc4c4cc5ccccc5n34)c2c1` and report
Data returned: 49

----------
# Tested on: Candida albicans
# test: Antimicrobial activity against Candida albicans after 24 hrs by liquid dilution method
# Type: functional
property: MIC (µg/mL)

Worked set:
c1ccc(-c2nc3ccccc3c3cc4ccccc4n23)c(-c2nc3ccccc3c3cc4ccccc4n23)c1; 35
Cc1ccc2[nH]cc(-c3nc4ccccc4c4cc5ccccc5n34)c2c1; 20
COc1ccc2[nH]cc(-c3nc4ccccc4c4cc5ccccc5n34)c2c1; 15

[I] c1ccc2c(c1)cc1c3ccccc3nc(-c3csc4ccccc34)n21
[II] c1ccc2c(c1)cc1c3ccccc3nc(-c3c[nH]c4ccccc34)n21
Data request: MIC comparison. Which is larger, I or II ? Could you answer with the label of the item you picked?
Data returned: I

----------
# Test system: Bacillus subtilis
# test: Antimicrobial activity against Bacillus subtilis after 24 hrs by liquid dilution method
# Assay type: functional
property: MIC (µg/mL)

# count of solved cases: 5
c1ccc2cc(-c3nc4ccccc4c4cc5ccccc5n34)c(-c3nc4ccccc4c4cc5ccccc5n34)cc2c1; 15
Cc1ccc2[nH]cc(-c3nc4ccccc4c4cc5ccccc5n34)c2c1; 10
c1ccc(-c2nc3ccccc3c3cc4ccccc4n23)c(-c2nc3ccccc3c3cc4ccccc4n23)c1; 20
c1ccc2c(c1)cc1c3ccccc3nc(-c3c[nH]c4ccccc34)n21; 15
c1cc(-c2nc3ccccc3c3cc4ccccc4n23)cc(-c2nc3ccccc3c3cc4ccccc4n23)c1; 15

[I] c1ccc2c(c1)cc1c3ccccc3nc(-c3ccc(-c4ccncc4)cc3)n21
[II] c1ccc2c(c1)cc1c3ccccc3nc(-c3csc4ccccc34)n21
Data request: Which has the smaller recorded MIC, I or II ? Your answer should be the label attached to the chosen record.
Data returned: II
(II: 2.5 µg/mL, I: 10 µg/mL)

----------
# Test system: Trichoderma viride
# test: Antimicrobial activity against Trichoderma viride after 24 hrs by liquid dilution method
# Type: functional
property: MIC (µg/mL)

Worked cases, MIC given:
COc1ccc2[nH]cc(-c3nc4ccccc4c4cc5ccccc5n34)c2c1; 10
c1ccc2c(c1)cc1c3ccccc3nc(-c3ccc(-c4ccncc4)cc3)n21; 25
c1ccc2c(c1)cc1c3ccccc3nc(-c3csc4ccccc34)n21; 2.5

[1] c1ccc2c(c1)cc1c3ccccc3nc(-c3c[nH]c4ccccc34)n21
[2] c1cc(-c2nc3ccccc3c3cc4ccccc4n23)cc(-c2nc3ccccc3c3cc4ccccc4n23)c1
Data request: Would you let me know which has the greater MIC value, 1 or 2 ? Use the label to indicate which entry you chose.
Data returned: 2

----------
# Test system: Candida albicans
# test: Antimicrobial activity against Candida albicans at 1000 ug after 72 hrs by cup plate method
# Type: functional
# measurement_setup: read-out: DIZ
property: zone of inhibition at 1000 µg/disc (mm)
Numbers only here, please. The scale is mm.

c1ccc2cc(-c3nc4ccccc4c4cc5ccccc5n34)c(-c3nc4ccccc4c4cc5ccccc5n34)cc2c1; 16
COc1ccc2[nH]cc(-c3nc4ccccc4c4cc5ccccc5n34)c2c1; 48
c1ccc2c(c1)cc1c3ccccc3nc(-c3ccc(Oc4ccc(-c5nc6ccccc6c6cc7ccccc7n56)cc4)cc3)n21; 9

Next, consider the following molecule.
Data request: zone of inhibition at 1000 µg/disc for `c1ccc2c(c1)cc1c3ccccc3nc(-c3ccc(-c4ccncc4)cc3)n21` ?
Data returned: 18

----------
# System: Escherichia coli
# test: Antimicrobial activity against Escherichia coli after 24 hrs by liquid dilution method
# Format: functional
property: MIC (µg/mL)

c1ccc2cc(-c3nc4ccccc4c4cc5ccccc5n34)c(-c3nc4ccccc4c4cc5ccccc5n34)cc2c1; 35

[a] c1cc(-c2nc3ccccc3c3cc4ccccc4n23)cc(-c2nc3ccccc3c3cc4ccccc4n23)c1
[b] c1ccc2c(c1)cc1c3ccccc3nc(-c3ccc(-c4ccncc4)cc3)n21
Data request: Which numeric MIC is bigger, that of a or that of b ? Give the chosen item's label as your response.
Data returned: b
(b: 25 µg/mL, a: 10 µg/mL)

[P] c1ccc2c(c1)cc1c3ccccc3nc(-c3csc4ccccc34)n21
[Q] c1ccc(-c2nc3ccccc3c3cc4ccccc4n23)c(-c2nc3ccccc3c3cc4ccccc4n23)c1
Data request: // select label with min value of measured MIC from [ P , Q ] Refer to your chosen entry by its label in the reply.
Data returned: P

----------
# Test system: Trichoderma viride
# test: Antimicrobial activity against Trichoderma viride after 24 hrs by liquid dilution method
# Type: functional
property: MIC (µg/mL)

[1] c1ccc2cc(-c3nc4ccccc4c4cc5ccccc5n34)c(-c3nc4ccccc4c4cc5ccccc5n34)cc2c1
[2] Cc1ccc2[nH]cc(-c3nc4ccccc4c4cc5ccccc5n34)c2c1
Data request: Return label of the item with the larger MIC. Candidates: 1 , 2 . Bench note: the answer is the label of the chosen record.
Data returned: 1

----------
# Tested on: Escherichia coli
# test: Antimicrobial activity against Escherichia coli at 1000 ug after 24 hrs by cup plate method
# Format: functional
# measurement_setup: read-out: DIZ
property: zone of inhibition at 1000 µg/disc (mm)
Supply the numeric figure in mm, leaving out any unit text.

Answered cases to consult:
c1ccc2c(c1)cc1c3ccccc3nc(-c3ccc(-c4nc5ccccc5c5cc6ccccc6n45)cc3)n21; 16
Cc1ccc2[nH]cc(-c3nc4ccccc4c4cc5ccccc5n34)c2c1; 42

Consider the additional compound presented here.
Data request: Form field - read-out: zone of inhibition at 1000 µg/disc; system: Escherichia coli; submitted item: `c1ccc2cc(-c3nc4ccccc4c4cc5ccccc5n34)c(-c3nc4ccccc4c4cc5ccccc5n34)cc2c1`
Data returned: 12

----------
# Test system: Candida albicans
# test: Antimicrobial activity against Candida albicans at 1000 ug after 72 hrs by cup plate method
# Type: functional
# measurement_setup: read-out: DIZ
property: zone of inhibition at 1000 µg/disc (mm)
Field format: number, assumed mm, no unit text.

Cc1ccc2[nH]cc(-c3nc4ccccc4c4cc5ccccc5n34)c2c1; 51

Data request: Would you mind telling me what zone of inhibition at 1000 µg/disc value was observed for `c1ccc2c(c1)cc1c3ccccc3nc(-c3c[nH]c4ccccc34)n21` ?
Data returned: 49

Data request: Further, for `c1ccc2c(c1)cc1c3ccccc3nc(-c3csc4ccccc34)n21` ?
Data returned: 45

----------
# Test system: Aspergillus niger
# test: Antimicrobial activity against Aspergillus niger at 1000 ug after 72 hrs by cup plate method
# Format: functional
# measurement_setup: read-out: DIZ
property: zone of inhibition at 1000 µg/disc (mm)
Answer with a number only, understood to be in mm.

Below: 5 molecules and their reported zone of inhibition at 1000 µg/disc.
c1ccc2c(c1)cc1c3ccccc3nc(-c3csc4ccccc34)n21; 52
Cc1ccc2[nH]cc(-c3nc4ccccc4c4cc5ccccc5n34)c2c1; 50
c1ccc2c(c1)cc1c3ccccc3nc(-c3ccc(-c4ccncc4)cc3)n21; 22
c1ccc2c(c1)cc1c3ccccc3nc(-c3c[nH]c4ccccc34)n21; 46
c1ccc(-c2nc3ccccc3c3cc4ccccc4n23)c(-c2nc3ccccc3c3cc4ccccc4n23)c1; 20

Note: attention shifts to another entry.
Data request: Value lookup for zone of inhibition at 1000 µg/disc; key = CC(=O)N1CCN(c2ccc(OCC3COC(Cn4ccnc4)(c4ccc(Cl)cc4Cl)O3)cc2)CC1 (stereo unspecified)
Data returned: 45
